# target system: T1, human ferroportin (SLC40A1) fused in frame with the GFP protein, stably expressed in HEK293 cells (human, UniProt Q9NP59 1-571)
# T1 sequence (looked up): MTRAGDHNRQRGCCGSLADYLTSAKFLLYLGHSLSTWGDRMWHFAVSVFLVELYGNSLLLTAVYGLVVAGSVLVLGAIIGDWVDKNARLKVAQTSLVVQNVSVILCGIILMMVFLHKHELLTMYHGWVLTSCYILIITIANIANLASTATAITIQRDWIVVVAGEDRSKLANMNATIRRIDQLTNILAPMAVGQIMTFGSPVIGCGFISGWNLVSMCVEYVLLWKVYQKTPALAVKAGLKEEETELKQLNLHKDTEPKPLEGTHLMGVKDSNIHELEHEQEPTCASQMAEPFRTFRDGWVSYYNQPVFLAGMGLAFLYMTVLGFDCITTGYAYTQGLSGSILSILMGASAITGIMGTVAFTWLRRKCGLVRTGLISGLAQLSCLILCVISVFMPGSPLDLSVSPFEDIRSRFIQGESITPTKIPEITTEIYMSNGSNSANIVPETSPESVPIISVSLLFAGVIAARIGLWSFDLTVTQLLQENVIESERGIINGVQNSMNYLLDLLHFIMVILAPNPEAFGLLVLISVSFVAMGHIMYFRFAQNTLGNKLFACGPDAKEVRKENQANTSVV
# protocol description: cell-based or functional assay
Starred links: 1 amine or outer side, 2 acyl side, 3 side chain; linkers in the order of their positions; H or OH if unused. Positions of bridges follow the written chain, without caps; N, C: chain ends. Non-standard residues stand in square brackets, D forms with d. Groups on a side chain read outwards from the residue. *: point of attachment. γGlu = O=C(O)[C@H](CCC(=O)[*:2])N[*:1]; Palmitoyl = CCCCCCCCCCCCCCCC(=O)*; αMeF = C[C@](N)(Cc1ccccc1)C(=O)O; Isovaleryl = CC(C)CC(=O)*
value type: FPN IC50 (nM)
Give the value, in units of nM, as a plain number.

q: I'd like to know its FPN IC50. The binder in question is Isovaleryl-DTHFPCIK([γGlu-Palmitoyl])FC-NH2 (disulfide 6-10; SMILES CCCCCCCCCCCCCCCC(=O)N[C@@H](CCC(=O)NCCCC[C@@H]1NC(=O)[C@H]([C@@H](C)CC)NC(=O)[C@@H](NC(=O)[C@@H]2CCCN2C(=O)[C@H](Cc2ccccc2)NC(=O)[C@H](Cc2c[nH]cn2)NC(=O)[C@@H](NC(=O)[C@H](CC(=O)O)NC(=O)CC(C)C)[C@@H](C)O)CSSC[C@@H](C(N)=O)NC(=O)[C@H](Cc2ccccc2)NC1=O)C(=O)O) [Compd ID 207]
a: 64

q: # input binder: Isovaleryl-DTHFPCIK([γGlu-Palmitoyl])FC-NH2 (disulfide 6-10; SMILES CCCCCCCCCCCCCCCC(=O)N[C@@H](CCC(=O)NCCCC[C@@H]1NC(=O)[C@H]([C@@H](C)CC)NC(=O)[C@@H](NC(=O)[C@@H]2CCCN2C(=O)[C@H](Cc2ccccc2)NC(=O)[C@H](Cc2c[nH]cn2)NC(=O)[C@@H](NC(=O)[C@H](CC(=O)O)NC(=O)CC(C)C)[C@@H](C)O)CSSC[C@@H](C(N)=O)NC(=O)[C@H](Cc2ccccc2)NC1=O)C(=O)O) [Compd ID 223] ; wanted: its FPN IC50
a: 47

q: So what does the record say about FPN IC50 for Isovaleryl-DTHWPCIK([γGlu-Palmitoyl])[αMeF]C-NH2 (disulfide 6-10; SMILES CCCCCCCCCCCCCCCC(=O)N[C@@H](CCC(=O)NCCCC[C@@H]1NC(=O)[C@H]([C@@H](C)CC)NC(=O)[C@@H](NC(=O)[C@@H]2CCCN2C(=O)[C@H](Cc2c[nH]c3ccccc23)NC(=O)[C@H](Cc2c[nH]cn2)NC(=O)[C@@H](NC(=O)[C@H](CC(=O)O)NC(=O)CC(C)C)[C@@H](C)O)CSSC[C@@H](C(N)=O)NC(=O)[C@](C)(Cc2ccccc2)NC1=O)C(=O)O) [Compd ID 220] ?
a: 871

q: // query FPN IC50 value for entry Isovaleryl-DTHFPCIK([γGlu-Palmitoyl])FKC-NH2 (disulfide 6-11; SMILES CCCCCCCCCCCCCCCC(=O)N[C@@H](CCC(=O)NCCCC[C@@H]1NC(=O)[C@H]([C@@H](C)CC)NC(=O)[C@@H](NC(=O)[C@@H]2CCCN2C(=O)[C@H](Cc2ccccc2)NC(=O)[C@H](Cc2c[nH]cn2)NC(=O)[C@@H](NC(=O)[C@H](CC(=O)O)NC(=O)CC(C)C)[C@@H](C)O)CSSC[C@@H](C(N)=O)NC(=O)[C@H](CCCCN)NC(=O)[C@H](Cc2ccccc2)NC1=O)C(=O)O) [Compd ID 227]
a: 114
